Molecular target: T1, Urokinase from human urine (human, UniProt P00749 21-431, limits assumed)
T1 construct: purified natural enzyme, bought
Assay: enzyme inhibition, pNA substrate
Bridges are numbered along the chain shown (N, C = ends). Primed or numbered codes have the meaning given here. [ ]: non-standard residue; d: D form. Pro(4NHCOPhe)″ = 4-benzamido-L-proline, (2S)-4-benzoylamino-pyrrolidine-2-carboxylic acid; Gly(octyl) = CCCCCCCC[C@H](N)C(=O)O; Pro(4NHCOPhe) = not defined here; Cha = N[C@@H](CC1CCCCC1)C(=O)O; Nle = CCCC[C@H](N)C(=O)O
quantity: % inhibition at 100 µM (%)

binder	unit_of_measure	experimental_value
cyclo([Nle]CTASIP[Pro(4NHCOPhe)″]QCY[dP]P) (disulfide 2-10) [Example 138]	%	14.4
XCTASIPPQCX (HELM PEPTIDE1{[Nle].C.T.A.S.I.P.P.Q.C.[Cha].[dP].P}$PEPTIDE1,PEPTIDE1,2:R3-10:R3|PEPTIDE1,PEPTIDE1,1:R1-13:R2$$$V2.0; SMILES CCCC[C@@H]1NC(=O)[C@@H]2CCCN2C(=O)[C@H]2CCCN2C(=O)[C@H](CC2CCCCC2)NC(=O)[C@@H]2CSSC[C@H](NC1=O)C(=O)N[C@@H]([C@@H](C)O)C(=O)N[C@@H](C)C(=O)N[C@@H](CO)C(=O)N[C@@H]([C@@H](C)CC)C(=O)N1CCC[C@H]1C(=O)N1CCC[C@H]1C(=O)N[C@@H](CCC(N)=O)C(=O)N2, also called Ex. 97) [Example 97]	%	11.9
XETASIPPQKY (HELM PEPTIDE1{[Nle].E.T.A.S.I.P.P.Q.K.Y.[dP].P}$PEPTIDE1,PEPTIDE1,1:R1-13:R2$$$V2.0; SMILES CCCC[C@@H]1NC(=O)[C@@H]2CCCN2C(=O)[C@H]2CCCN2C(=O)[C@H](Cc2ccc(O)cc2)NC(=O)[C@H](CCCCN)NC(=O)[C@H](CCC(N)=O)NC(=O)[C@@H]2CCCN2C(=O)[C@@H]2CCCN2C(=O)[C@H]([C@@H](C)CC)NC(=O)[C@H](CO)NC(=O)[C@H](C)NC(=O)[C@H]([C@@H](C)O)NC(=O)[C@H](CCC(=O)O)NC1=O) [Example 104]	%	0
XCTASIPPQCY (HELM PEPTIDE1{[CCCCCC[C@H](N[*:1])C(=O)[*:2]].C.T.A.S.I.P.P.Q.C.Y.[dP].P}$PEPTIDE1,PEPTIDE1,2:R3-10:R3|PEPTIDE1,PEPTIDE1,1:R1-13:R2$$$V2.0; SMILES CCCCCC[C@@H]1NC(=O)[C@@H]2CCCN2C(=O)[C@H]2CCCN2C(=O)[C@H](Cc2ccc(O)cc2)NC(=O)[C@@H]2CSSC[C@H](NC1=O)C(=O)N[C@@H]([C@@H](C)O)C(=O)N[C@@H](C)C(=O)N[C@@H](CO)C(=O)N[C@@H]([C@@H](C)CC)C(=O)N1CCC[C@H]1C(=O)N1CCC[C@H]1C(=O)N[C@@H](CCC(N)=O)C(=O)N2, also called Ex. 99) [Example 99]	%	17.4
XCTASIPPQCX (HELM PEPTIDE1{[Nle].C.T.A.S.I.P.P.Q.C.[Phg].[dP].P}$PEPTIDE1,PEPTIDE1,2:R3-10:R3|PEPTIDE1,PEPTIDE1,1:R1-13:R2$$$V2.0; SMILES CCCC[C@@H]1NC(=O)[C@@H]2CCCN2C(=O)[C@H]2CCCN2C(=O)[C@H](c2ccccc2)NC(=O)[C@@H]2CSSC[C@H](NC1=O)C(=O)N[C@@H]([C@@H](C)O)C(=O)N[C@@H](C)C(=O)N[C@@H](CO)C(=O)N[C@@H]([C@@H](C)CC)C(=O)N1CCC[C@H]1C(=O)N1CCC[C@H]1C(=O)N[C@@H](CCC(N)=O)C(=O)N2, also called Ex. 98) [Example 98]	%	0
cyclo([Gly(octyl)]CTAS[Cha]P[Pro(4NHCOPhe)]QCQ[dP]P) (disulfide 2-10; not fully specified; reading uncertain, also called Ex. 160) [Example 160]	%	14
XCTASIPPQCY (HELM PEPTIDE1{[Nle].C.T.A.S.I.P.P.Q.C.Y.[dP].F}$PEPTIDE1,PEPTIDE1,2:R3-10:R3|PEPTIDE1,PEPTIDE1,1:R1-13:R2$$$V2.0; SMILES CCCC[C@@H]1NC(=O)[C@H](Cc2ccccc2)NC(=O)[C@H]2CCCN2C(=O)[C@H](Cc2ccc(O)cc2)NC(=O)[C@@H]2CSSC[C@H](NC1=O)C(=O)N[C@@H]([C@@H](C)O)C(=O)N[C@@H](C)C(=O)N[C@@H](CO)C(=O)N[C@@H]([C@@H](C)CC)C(=O)N1CCC[C@H]1C(=O)N1CCC[C@H]1C(=O)N[C@@H](CCC(N)=O)C(=O)N2, also called Ex. 167) [Example 167]	%	11.1
XCTASIPPQCY (HELM PEPTIDE1{[Nle].C.T.A.S.I.P.P.Q.C.Y.[dP].F}$PEPTIDE1,PEPTIDE1,2:R3-10:R3|PEPTIDE1,PEPTIDE1,1:R1-13:R2$$$V2.0; SMILES CCCC[C@@H]1NC(=O)[C@H](Cc2ccccc2)NC(=O)[C@H]2CCCN2C(=O)[C@H](Cc2ccc(O)cc2)NC(=O)[C@@H]2CSSC[C@H](NC1=O)C(=O)N[C@@H]([C@@H](C)O)C(=O)N[C@@H](C)C(=O)N[C@@H](CO)C(=O)N[C@@H]([C@@H](C)CC)C(=O)N1CCC[C@H]1C(=O)N1CCC[C@H]1C(=O)N[C@@H](CCC(N)=O)C(=O)N2) [Example 122]	%	11.1
XCTASIPPQCX (HELM PEPTIDE1{[Nle].C.T.A.S.I.P.P.Q.C.[Phg].[dP].P}$PEPTIDE1,PEPTIDE1,2:R3-10:R3|PEPTIDE1,PEPTIDE1,1:R1-13:R2$$$V2.0; SMILES CCCC[C@@H]1NC(=O)[C@@H]2CCCN2C(=O)[C@H]2CCCN2C(=O)[C@H](c2ccccc2)NC(=O)[C@@H]2CSSC[C@H](NC1=O)C(=O)N[C@@H]([C@@H](C)O)C(=O)N[C@@H](C)C(=O)N[C@@H](CO)C(=O)N[C@@H]([C@@H](C)CC)C(=O)N1CCC[C@H]1C(=O)N1CCC[C@H]1C(=O)N[C@@H](CCC(N)=O)C(=O)N2, also called Ex. 136) [Example 136]	%	0

The reported measurements were obtained from patent US20140213531A1.
